Items are presented alongside their recorded inhibition.
assay: inhibitors of TWEAK-Fn14 signaling, primary screen, luciferase reporter cells, uHTS (AID 1159606); settings: TWEAK-stimulated Fn14 reporter cells, luciferase luminescence, 8 h; at 10 µM; stronger effect = higher value
Among all 360,000 compounds or so, about 7,300 (2%) were called active. For the sample, actives were picked, then their nearest neighbours and some compounds at random.
MEASURE NAME: inhibition (%)

- Cc1ccc(N2CCN(c3ccc(C)cc3)C2c2ccccn2)cc1: -16.7
- Cc1nn(Cc2ccc(Cl)c(Cl)c2)c(C)c1NC(=O)c1cc(C2CC2)on1: -9.69
- C=C(C)C(=O)O[C@H]1C/C(C)=C\C(=O)/C=C(\C)[C@H](O)[C@@H]2OC(=O)C(=C)[C@@H]21: 68.2
- O=C(c1ccc(F)cc1)n1c(=S)nc2ccccn21: 78.2
- O=C(c1ccc(F)cc1)N1CCC(n2nnc3ccccc32)CC1: -5.58
- Cc1ccc(NC(=O)CC2S/C(=N/N=C3\CCCc4ccccc43)NC2=O)cc1 (stereo unspecified): 11.1
- CCOC(=O)c1c(C)[nH]c(C)c1S(=O)(=O)NCCCc1ccco1: -7.27
- COc1ccc2c(c1)CC[C@@H]1[C@@H]2CC[C@]2(C)C(=O)CC[C@@H]12: -3.91
- O=c1c2ccccc2c(-c2ccc(F)cc2)nn1-c1ccc(C(F)(F)F)cc1: -4.84
- CCOC(=O)c1c(C)[nH]c2c1-c1ccccc1C(=O)C2=O: 101
- N#CCC(=O)Nc1ccc(C(=O)OCC(=O)Nc2sc3c(c2C#N)CCCC3)cc1: -31.7
- Cn1c(-c2ccc(F)cc2)cc2onc(-c3ccccc3Cl)c2c1=O: 6.49
- Cc1cc(-c2nnc(SCC(=O)Nc3ccc(F)cc3)n2N)n[nH]1: 1.35
- CC(=O)c1c(C)[nH]c(C(=O)OCC(=O)Nc2c(C)cccc2C)c1C: 12.5
- CCOC(=O)N1CCN(C(=O)C[C@@H]2C[C@@]3(C(=O)OC)CCCCC=C3N(CCC3=CCCCC3)C2=O)CC1: -5.06
- O=C(c1ccc2c(c1)N(Cc1ccc(F)cc1)C(=O)CS2)N1CCOCC1: -16.2
- CSc1nnc(CNC(=O)c2ccccc2)n1-c1ccc(F)cc1: 23.6
- Cn1c(-c2ccc(C(F)(F)F)cc2)cc2onc(-c3ccccc3)c2c1=O: 51.4
- O=C(C1CCC1)N1CCN(S(=O)(=O)c2ccc([N+](=O)[O-])cc2)CC1: 4.46
- O=C(OC1CC2CC1[C@H]1CCCCN1C2=O)N1CCOCC1 (stereo partly specified): 24.2
- CSc1ccc(/C=C2\NC(=O)NC2=O)cc1: -11.1

----------
test: inhibitors of TWEAK-Fn14 signaling, primary screen, luciferase reporter cells, uHTS (AID 1159606); conditions: TWEAK-stimulated Fn14 reporter cells, luciferase luminescence, 8 h; at 10 µM; stronger effect = higher value
Hit rate of the full screen: of about 360,000 compounds, about 7,300 (2%) were called active. The list comes from a sample in which actives are over-represented; it also holds close analogues and randomly drawn compounds.
// inhibition lookup, one value per entry
MEASURE NAME: inhibition (%)

- O=C1CC(c2ccccc2)C(c2ccccc2)=NN1 (stereo unspecified): -8.4
- CSc1nc(-c2ccco2)nn1C(=O)c1ccccc1Cl: 51
- O=C(CSc1nnc(-c2ccco2)o1)NCC(=O)c1ccccc1: 7.83
- CCOc1cc(/C=C(/C#N)c2ccc(Cl)cc2)cc(Cl)c1OCC(=O)O: 83.5
- O=S(=O)(Nc1ccccc1N1CCOCC1)c1ccc(Cl)s1: 4.55
- COc1cc(NC(=O)c2ccccc2NS(=O)(=O)c2ccc(Cl)s2)cc(OC)c1: 72.6
- COc1cc(/C=C(/NC(=O)c2ccc(Cl)cc2Cl)C(=O)O)cc(OC)c1OC: 15.3
- CN(C(=O)Nc1ccc(Cl)cc1)n1cnc2ccccc2c1=O: 1.4
- O=C(Nc1cccc(Cl)c1)Nc1ccccc1NS(=O)(=O)c1cccs1: 10.4
- CC(C)(C)c1nc2ccccc2c(=O)n1N1C(=O)c2ccccc2C1=O: 20.8
- CCn1c(SCC(=O)Nc2cc(C)c(Cl)cc2OC)nnc1-c1ccco1: -18.4

----------
assay: inhibitors of TWEAK-Fn14 signaling, primary screen, luciferase reporter cells, uHTS (AID 1159606); conditions: TWEAK-stimulated Fn14 reporter cells, luciferase luminescence, 8 h; at 10 µM; stronger effect = higher value
Out of some 360,000 compounds screened, about 7,300 (2%) were called active. The sample holds actives, similar compounds and a random draw of the others, so the mix is not that of the screen.
Recorded inhibition for the following molecules
MEASURE NAME: inhibition (%)

- Cc1ccc(C)c(N2CCN(C(=O)CCCCCn3c(=S)[nH]c4ccc(N5CCOCC5)cc4c3=O)CC2)c1: 88.1
- Cc1cc(C)c(S(=O)(=O)NN=C2c3ccccc3[C@H]3Cc4csc[n+]4[C@@H]23)c(C)c1: 13.8
- CC(NC(=O)CCC(=O)N1CCN(S(=O)(=O)c2ccc(Cl)cc2)CC1)c1ccccc1 (stereo not given): 4.74
- O=C(CCCCCn1c(=O)[nH]c2ccccc2c1=O)NCCc1c[nH]c2ccccc12: 35
- Cc1ccc(OCCCC(=O)N2CCOCC2)c(C)c1: -41.6
- O=C(NCc1cccc(C(F)(F)F)c1)c1cccc(S(=O)(=O)N2CCN(Cc3ccccc3)CC2)c1: 15.4
- CCN(c1ccccc1)S(=O)(=O)c1cc2c(cc1C)n(C)c(=O)c(=O)n2C: -4.66
- Cc1cc(NC(=O)CSc2nnnn2-c2ccc(F)cc2)no1: -11.5
- CC(=O)C1C(c2ccc(Cl)cc2)c2c(n[nH]c2C)CC1(C)O (stereo not given): -9.34
- O=C(CCCCCn1c(=S)[nH]c2cc3c(cc2c1=O)OCO3)N1CCN(c2ccc(F)cc2)CC1: -18.2

----------
experiment: inhibitors of TWEAK-Fn14 signaling, primary screen, luciferase reporter cells, uHTS (AID 1159606); settings: TWEAK-stimulated Fn14 reporter cells, luciferase luminescence, 8 h; at 10 µM
About 7,300 (2%) of roughly 360,000 compounds were called active. No stated cut-off is given here; in the data, active means inhibition above about 50%; inactive means the rest. For the sample, actives were picked, then their nearest neighbours and some compounds at random.
Outcome codes: true for active, false for inactive

• COc1ccc(NC(=O)c2ccccc2CC[N+](=O)[O-])cc1 = false
• COC(c1ccccc1)(c1ccccc1)C(Oc1nc(C)cc(C)n1)C(=O)O (stereo unspecified) = false
• CCCC(NC(=O)c1ccco1)c1nc2ccccc2[nH]1 (stereo unspecified) = false
• CC1(C)CC(=O)c2cnc3nc4ccccc4n3c2C1 = false
• Nc1nc(-c2sc3nc4c(cc3c2N)CCCC4)nc(N2CCOCC2)n1 = false
• COC(=O)c1cc(=O)n(-c2c(Cl)cc(C(F)(F)F)cc2Cl)[nH]1 = false
• CSc1ccccc1NC(=O)Cc1ccc(Br)cc1 = false
• CCOC(=O)c1cc2cc(OC)ccc2n1C1CCN(C)CC1 = false
• CCOC(=O)C1=C(C)N=c2s/c(=C\C(=O)OC)c(=O)n2C1c1ccc(OC)cc1 (stereo unspecified) = true
• Cc1ccc(N(CC(=O)NC2CCCCC2)C(=O)CCCC(=O)Nc2ccccn2)c(C)c1 = false
• COCc1c(N)c(C)nc(Cl)c1C#N = false

----------
assay: inhibitors of TWEAK-Fn14 signaling, primary screen, luciferase reporter cells, uHTS (AID 1159606); conditions: TWEAK-stimulated Fn14 reporter cells, luciferase luminescence, 8 h; at 10 µM
About 7,300 (2%) of roughly 360,000 compounds were called active. Cut-off read from the data, not from the text of the source: active = inhibition above about 50%; inactive = the rest. The list comes from a sample in which actives are over-represented; it also holds close analogues and randomly drawn compounds.
Outcomes: active, inactive

- S=C(c1ccc(-c2ccccc2)o1)N1CCCCC1: inactive
- O=C(Nc1ccccn1)C1CCN(S(=O)(=O)c2ccc3c(c2)OCCO3)CC1: inactive
- FC(F)(F)C1CCCN(c2nsc3ccccc23)C1 (configuration not stated): inactive
- O=C(Nc1ccc2c(c1)OCO2)C1CC1(Cl)Cl (configuration not stated): inactive
- CCc1ccccc1N1CN(Cc2ccco2)CNC1=S: inactive
- CC(C)(C)c1ccc(C(=O)NCC(=O)OCN2C(=O)c3ccccc3C2=O)cc1: inactive
- O=C(NC(=O)c1ccccc1)Nc1ccccc1O: active
- CC(NC(=O)CCCC1CCCCC1)c1ccc(S(N)(=O)=O)cc1 (configuration not stated): inactive
- Cc1ccc(CNC(=O)c2ccc3c(c2)S(=O)(=O)c2ccccc2C3=O)cc1: inactive
- CC(C)[C@@H]1NC(=O)c2cc([N+](=O)[O-])cc(I)c2NCCC[C@@H](C(=O)NC(CC(=O)O)C(N)=O)NC(=O)[C@H](CO)NC1=O (some centres not stated): inactive
- Cc1cc2oc(C(=O)Nc3c(C)n(C)n(-c4ccccc4)c3=O)c(C)c2cc1Cl: inactive
- O=C(CSc1ncnc2scc(-c3ccccc3)c12)NCc1ccc2c(c1)OCO2: inactive
- COc1cc(N2C(=O)c3ccccc3C2=O)c(Cl)cc1C(=O)OCC(=O)N1CCOCC1: inactive
- Cc1c(NC(=O)c2coc(=O)c(Br)c2)c(=O)n(-c2ccccc2)n1C: active
- CSc1nc(-c2ccccc2)nc(C(Cl)Cl)n1: active
- CCCNC(=O)C1(C)CCN(C(=O)c2ccc(F)cc2Cl)C1 (configuration not stated): inactive
- COC(=O)C(C)N(C#N)c1nc(C)nc(C)n1 (configuration not stated): inactive
- CC(C)CNC(=O)C1(C)CCCN1C(=O)CSc1ccccc1 (configuration not stated): inactive
- N#Cc1ccc(-c2ccc3nccn3c2)cc1: inactive
- Cc1c(NC(=O)c2cc(-c3ccc(Br)cc3)on2)c(=O)n(-c2ccccc2)n1C: inactive
- CC1=CC=CC2=N/C(=N\S(=O)(=O)c3ccc(F)cc3F)c3ccccc3CN12: inactive
- CN1C(=O)c2ccc(NC(=O)C3CCCCC3)cc2C1=O: inactive
